system: 20S proteasome
methodSummary: Inhibition of chymotrypsin-like activity of human 20S proteasome using Suc-Leu Leu-Val-Tyr-AMC as substrate preincubated for 15 mins followed by substrate addition measured by fluorescence assay
Format: protein-complex assay
Recorded IC50 values for a group of compounds are listed next.
# number only, unit µM dropped from output

Some entries whose results are on file:
{"compound": "CC(C)(C)CNC(=O)C[C@H](NC(=O)N1CCN(C(=O)c2cccnc2)CC1)C(=O)N[C@@H](CCc1ccccc1)C(=O)N[C@@H]1CCCc2ccccc21", "assayValue": 0.025}
{"compound": "C[C@@H](NC(=O)[C@H](CCc1ccccc1)NC(=O)[C@H](CC(=O)NCC(C)(C)C)NC(=O)N1CCC(C(=O)N(C)c2cccnc2)CC1)c1ccccc1", "assayValue": 0.0998}
{"compound": "CN(C(=O)C1CCN(C(=O)N[C@@H](CC(=O)NCC(C)(C)C)C(=O)N[C@@H](CCc2ccccc2)C(=O)N[C@@H]2CCCc3ccccc32)CC1)c1ccc(Cl)cc1", "assayValue": 0.00695}
{"compound": "CN(C(=O)C1CCN(C(=O)N[C@@H](CC(=O)NCC(C)(C)C)C(=O)N[C@@H](CCc2ccccc2)C(=O)N[C@@H]2CCCc3ccccc32)CC1)c1cccnc1", "assayValue": 0.00859}

Exercise: Specify IC50 for CC(C)(C)CNC(=O)C[C@H](NC(=O)N1CCC(C(=O)Nc2cccnc2)CC1)C(=O)N[C@@H](CCc1ccccc1)C(=O)N[C@H]1CCCc2ccccc21 , system 20S proteasome.
Key: 4.48

Exercise: Specify IC50 for CN(C(=O)C1CCN(C(=O)N[C@@H](CC(=O)NCC(C)(C)C)C(=O)N[C@@H](CCc2ccccc2)C(=O)N[C@@H]2CCCc3ccccc32)CC1)c1ccccn1 , system 20S proteasome.
Key: 0.00892

Exercise: Specify IC50 for CN(C(=O)C1CCN(C(=O)N[C@@H](CC(=O)NCC(C)(C)C)C(=O)N[C@@H](CCc2ccccc2)C(=O)N[C@@H]2CCCc3ccccc32)CC1)c1cccc(Cl)c1 , system 20S proteasome.
Key: 0.0226

Exercise: Specify IC50 for CN(C(=O)C1CCN(C(=O)N[C@@H](CC(=O)NCC(C)(C)C)C(=O)N[C@@H](CCc2ccccc2)C(=O)N[C@@H]2CCCc3ccccc32)CC1)c1ccc(F)cc1 , system 20S proteasome.
Key: 0.00938

Exercise: Specify IC50 for CCN(C(=O)C1CCN(C(=O)N[C@@H](CC(=O)NCC(C)(C)C)C(=O)N[C@@H](CCc2ccccc2)C(=O)N[C@@H]2CCCc3ccccc32)CC1)c1ccccc1 , system 20S proteasome.
Key: 0.00839

Exercise: Specify IC50 for CN(C(=O)C1CCN(C(=O)N[C@@H](CC(=O)NCC(C)(C)C)C(=O)N[C@@H](CCc2ccccc2)C(=O)N[C@@H]2CCCc3ccccc32)CC1)c1ccccc1Cl , system 20S proteasome.
Key: 0.0216

Exercise: Specify IC50 for CC(C)(C)CNC(=O)C[C@H](NC(=O)N1CCC(C(=O)Nc2cccnc2)CC1)C(=O)N[C@@H](CCc1ccccc1)C(=O)N[C@@H]1CCCc2ccccc21 , system 20S proteasome.
Key: 0.00403

Exercise: Specify IC50 for CN(C(=O)C1CCN(C(=O)N[C@@H](CC(=O)NCC(C)(C)C)C(=O)N[C@@H](CCc2ccccc2)C(=O)N[C@@H]2CCCc3ccccc32)CC1)c1nccs1 , system 20S proteasome.
Key: 0.00343

Exercise: Specify IC50 for CC(C)(C)CNC(=O)C[C@H](NC(=O)N1CCC(C(=O)N2CCc3ccccc32)CC1)C(=O)N[C@@H](CCc1ccccc1)C(=O)N[C@@H]1CCCc2ccccc21 , system 20S proteasome.
Key: 0.00724

* * *

Test system: RPMI-8226
methodSummary: Antiproliferative activity against human RPMI-8226 cells after 72 hrs by MTS assay
Assay type: functional, cell-based
conditionNotes: RPMI-8226, 72 h
metricName: IC50 (nM)
# number only, unit nM dropped from output

{"compound": "CN(C(=O)C1CCN(C(=O)N[C@@H](CC(=O)NCC(C)(C)C)C(=O)N[C@@H](CCc2ccccc2)C(=O)N[C@@H]2CCCc3ccccc32)CC1)c1ccccn1", "assayValue": 33.7}
{"compound": "CN(C(=O)C1CCN(C(=O)N[C@@H](CC(=O)NCC(C)(C)C)C(=O)N[C@@H](CCc2ccccc2)C(=O)N[C@@H]2CCCc3ccccc32)CC1)c1ccc(F)cc1", "assayValue": 26.2}
{"compound": "CN(C(=O)C1CCN(C(=O)N[C@@H](CC(=O)NCC(C)(C)C)C(=O)N[C@@H](CCc2ccccc2)C(=O)N[C@@H]2CCCc3ccccc32)CC1)c1ccccc1", "assayValue": 20.7}
{"compound": "CCN(C(=O)C1CCN(C(=O)N[C@@H](CC(=O)NCC(C)(C)C)C(=O)N[C@@H](CCc2ccccc2)C(=O)N[C@@H]2CCCc3ccccc32)CC1)c1ccccc1", "assayValue": 15.3}
{"compound": "CC(C)C[C@H](NC(=O)[C@H](CCc1ccccc1)NC(=O)CN1CCOCC1)C(=O)N[C@@H](Cc1ccccc1)C(=O)N[C@@H](CC(C)C)C(=O)[C@]1(C)CO1", "assayValue": 6.35}

Exercise: Give the reported value of IC50 for this record: CC(C)(C)CNC(=O)C[C@H](NC(=O)N1CCC(C(=O)N2CCc3ccccc32)CC1)C(=O)N[C@@H](CCc1ccccc1)C(=O)N[C@@H]1CCCc2ccccc21
Key: 19.9

Exercise: Give the reported value of IC50 for this record: CN(C(=O)c1cccnc1)C1CCN(C(=O)N[C@@H](CC(=O)NCC(C)(C)C)C(=O)N[C@@H](CCc2ccccc2)C(=O)N[C@@H]2CCCc3ccccc32)CC1
Key: 60.4

* * *

system: 20S proteasome
methodSummary: Inhibition of chymotrypsin-like activity of human 20S proteasome using Suc-Leu Leu-Val-Tyr-AMC as substrate preincubated for 15 mins followed by substrate addition measured by fluorescence assay
metricName: IC50

{"compound": "CC(C)(C)CNC(=O)C[C@H](NC(=O)N1CCC(C(=O)Nc2nccs2)CC1)C(=O)N[C@@H](CCc1ccccc1)C(=O)NCc1ccccc1Cl", "IC50": "0.92 nM"}
{"compound": "CN(Cc1ccccc1Cl)C(=O)[C@H](CCc1ccccc1)NC(=O)[C@H](CC(=O)NCC(C)(C)C)NC(=O)N1CCC(C(=O)N(C)c2cccnc2)CC1", "IC50": "> 10000 nM"}

Now examine the next entry.
Exercise: Give the reported value of IC50 for this record: C[C@@H](NC(=O)[C@H](CCc1ccccc1)NC(=O)[C@H](CC(=O)NCC(C)(C)C)NC(=O)N1CCC(C(=O)Nc2cccnc2)CC1)c1ccccc1
Key: 20.3 nM

* * *

Recorded log10(IC50) values for a group of molecules are listed next.
Tested on: MV4-11
methodSummary: Antiproliferative activity against human MV4-11 cells after 72 hrs by MTS assay
Format: functional, cell-based
conditionNotes: MV4-11, 72 h
Annotation: log10 of IC50, nM basis.

{"compound": "CN(C(=O)c1cccnc1)C1CCN(C(=O)N[C@@H](CC(=O)NCC(C)(C)C)C(=O)N[C@@H](CCc2ccccc2)C(=O)N[C@@H]2CCCc3ccccc32)CC1", "assayValue": 0.88}
{"compound": "CC(C)(C)CNC(=O)C[C@H](NC(=O)N1CCC(C(=O)N2CCCc3ccccc32)CC1)C(=O)N[C@@H](CCc1ccccc1)C(=O)N[C@@H]1CCCc2ccccc21", "assayValue": 0.69}
{"compound": "CN(C(=O)C1CCN(C(=O)N[C@@H](CC(=O)NCC(C)(C)C)C(=O)N[C@@H](CCc2ccccc2)C(=O)N[C@@H]2CCCc3ccccc32)CC1)c1ccncc1", "assayValue": 1.71}
{"compound": "CN(C(=O)C1CCN(C(=O)N[C@@H](CC(=O)NCC(C)(C)C)C(=O)N[C@@H](CCc2ccccc2)C(=O)N[C@@H]2CCCc3ccccc32)CC1)c1nccs1", "assayValue": 0.20}

Exercise: Give the reported value of log10(IC50) for this record: CN(C(=O)C1CCN(C(=O)N[C@@H](CC(=O)NCC(C)(C)C)C(=O)N[C@@H](CCc2ccccc2)C(=O)N[C@@H]2CCCc3ccccc32)CC1)c1cccnc1
Key: 1.08

Exercise: Give the reported value of log10(IC50) for this record: CC(C)(C)CNC(=O)C[C@H](NC(=O)N1CCC(C(=O)Nc2cccnc2)CC1)C(=O)N[C@@H](CCc1ccccc1)C(=O)N[C@@H]1CCCc2ccccc21
Key: 0.83

Exercise: Give the reported value of log10(IC50) for this record: CC(C)(C)CNC(=O)C[C@H](NC(=O)N1CCC(C(=O)N2CCc3ccccc32)CC1)C(=O)N[C@@H](CCc1ccccc1)C(=O)N[C@@H]1CCCc2ccccc21
Key: 0.66

Exercise: Give the reported value of log10(IC50) for this record: CN(C(=O)C1CCN(C(=O)N[C@@H](CC(=O)NCC(C)(C)C)C(=O)N[C@@H](CCc2ccccc2)C(=O)N[C@@H]2CCCc3ccccc32)CC1)c1ccc(Cl)cc1
Key: 0.61

Measured values drawn from ChEMBL document CHEMBL5154760 for this set.
